- Test system: large crabgrass
- procedure_summary: Test C pre-/postemergence herbicide test
- Assay type: in vivo, Digitaria sanguinalis
- condition_context: Preemergence, 500 g ai/ha; scale 0 to 100, 0 no effect, 100 complete control
reported_metric: Crabgrass, Large plant response rating
Field format: numeric only.

Worked examples, 2 molecules total:
>>> obs_value("CCNC(=O)c1cc(NC(=O)c2cc(C(C)(C)C)nn2CC)ccc1F [Compound 58]")
95
>>> obs_value("CCOC(=O)c1cc(NC(=O)c2cc(C(C)(C)C)nn2CC)ccc1OC [Compound 96]")
100

Here is another molecule to look at.
INPUT: Any idea what Crabgrass, Large plant response rating was measured for C=CCNC(=O)c1cccc(NC(=O)c2cc(C(C)(C)C)nn2CC)c1 [Compound 46] ?
OUTPUT: 100

###

- Test system: morningglory
- procedure_summary: Test B pre-/postemergence herbicide test
- Format: in vivo, Ipomoea coccinea
- condition_context: 125 g ai/ha; visual rating, scale 0 (no effect) to 100 (complete control); postemergence
# Morningglory plant response rating values compiled below
Field format: numeric only.

Worked examples, 5 compounds total:
>>> obs_value("CCn1nc(C(C)(C)C)cc1C(=O)Nc1cc(OC)ccc1F [Compound 347]")
0
>>> obs_value("CCOC(=O)c1ccc(F)c(NC(=O)c2nn(C(C)(C)CC)nc2CC)c1 [Compound 373]")
20
>>> obs_value("CCn1nc(C(C)(C)C)cc1C(=O)Nc1cc(C(=S)N(C)C)ccn1 [Compound 334]")
50
>>> obs_value("Cc1nn(C(C)C)nc1C(=O)Nc1cc(C(=O)N(C)C)ccc1F [Compound 400]")
0
>>> obs_value("CCNC(=O)c1ccc(F)c(NC(=O)c2nn(C(C)(C)C)nc2CC)c1 [Compound 362]")
10

INPUT: Any idea what Morningglory plant response rating was measured for CCNC(=O)c1ccc(F)c(NC(=O)c2nn(C(C)(C)C)nc2C)c1 [Compound 377] ?
OUTPUT: 0

###

# Plant response rating, Cocklebur values compiled below
- Tested on: cocklebur
- procedure_summary: Test B pre-/postemergence herbicide test
- Assay type: in vivo, Xanthium strumarium
- condition_context: 500 g ai/ha; visual rating, 0 = no effect, 100 = complete control; preemergence
Field format: numeric only.

>>> obs_value("CCc1nn(C(C)(C)C)nc1C(=O)Nc1cc(C(=O)N(C)C)ccc1F")
50
>>> obs_value("CCNC(=O)c1cccc(NC(=O)c2sc(C(C)(C)C)nc2CC)n1")
0
>>> obs_value("CCc1nn(C(C)(C)C)cc1C(=O)Nc1cc(C(=O)N(C)C)ccn1")
90

INPUT: Any idea what Plant response rating, Cocklebur was measured for `CCOC(=O)c1cccc(NC(=O)c2cc(C(C)(C)C)nn2C)n1` ?
OUTPUT: 10

INPUT: Any idea what Plant response rating, Cocklebur was measured for CCC1=NN(C(C)(C)C)CC1C(=O)Nc1cc(C(=O)N(C)C)ccc1F (racemic) ?
OUTPUT: 90

INPUT: Any idea what Plant response rating, Cocklebur was measured for `CCNC(=O)c1cccc(NC(=O)c2cc(C3(C)CC3)nn2CC)c1` ?
OUTPUT: 50

INPUT: Any idea what Plant response rating, Cocklebur was measured for `CCn1nc(C(C)(C)C)cc1C(=O)Nc1cccc(C(=O)N2CCCC2)n1` ?
OUTPUT: 0

INPUT: Any idea what Plant response rating, Cocklebur was measured for `C#CCOC(=O)c1cccc(NC(=O)c2cc(C(C)(C)C)nn2C)n1` ?
OUTPUT: 0
